target: CDK7 CCNH MNAT1 (human) (UniProt P50613+P51948+P51946); test: radiometric filter-binding kinase assay, Kinase HotSpot; conditions: compound 0.5 µM; ATP 10 µM
Sequence (P50613 whole entry, looked up): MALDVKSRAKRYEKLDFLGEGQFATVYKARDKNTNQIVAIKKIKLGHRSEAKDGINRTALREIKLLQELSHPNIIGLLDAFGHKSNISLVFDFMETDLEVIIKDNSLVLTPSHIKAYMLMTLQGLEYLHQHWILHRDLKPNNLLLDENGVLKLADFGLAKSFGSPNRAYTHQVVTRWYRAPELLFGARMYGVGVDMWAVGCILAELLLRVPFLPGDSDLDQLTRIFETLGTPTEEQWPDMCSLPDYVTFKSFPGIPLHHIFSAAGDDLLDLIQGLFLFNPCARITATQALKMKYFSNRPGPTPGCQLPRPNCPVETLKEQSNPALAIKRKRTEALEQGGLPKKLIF
Sequence (P51946 whole entry, looked up): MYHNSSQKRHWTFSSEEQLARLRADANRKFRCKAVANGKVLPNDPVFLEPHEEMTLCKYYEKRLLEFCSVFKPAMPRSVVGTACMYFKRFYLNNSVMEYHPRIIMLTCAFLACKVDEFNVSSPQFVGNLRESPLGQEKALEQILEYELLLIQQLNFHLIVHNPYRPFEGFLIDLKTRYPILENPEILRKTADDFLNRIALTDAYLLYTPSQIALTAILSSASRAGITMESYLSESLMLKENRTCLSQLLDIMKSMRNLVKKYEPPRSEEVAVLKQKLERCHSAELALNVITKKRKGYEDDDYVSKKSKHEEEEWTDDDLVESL
Sequence (P51948 whole entry, looked up): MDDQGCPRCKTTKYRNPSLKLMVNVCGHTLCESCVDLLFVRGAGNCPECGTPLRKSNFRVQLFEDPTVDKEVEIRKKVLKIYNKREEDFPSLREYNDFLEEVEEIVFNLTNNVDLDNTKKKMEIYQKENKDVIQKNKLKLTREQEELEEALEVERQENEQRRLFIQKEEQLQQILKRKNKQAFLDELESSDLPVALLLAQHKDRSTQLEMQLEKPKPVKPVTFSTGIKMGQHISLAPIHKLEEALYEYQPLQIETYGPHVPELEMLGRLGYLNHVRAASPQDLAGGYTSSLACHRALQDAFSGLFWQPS
measured_attribute: residual activity (%)
Entry rule: numbers only, all in %.

Guide cases for residual activity, answers given:
COc1cccc(-c2cc(=O)c3ccccc3o2)c1N
99.9
CCCCc1c(-c2ccc(O)cc2)[nH]c2nccnc12
88.2

Ask | Query (compound): O=c1c(-c2ccc(F)cc2)c(-c2ccncc2)[nH]n1-c1ccc(Cl)cc1 ; field requested: residual activity
Reply | 97.4

* * *

target: STK16 (human) (UniProt O75716); assay: radiometric filter-binding kinase assay, Kinase HotSpot; settings: compound 0.5 µM; ATP 10 µM
Sequence (O75716 whole entry, looked up): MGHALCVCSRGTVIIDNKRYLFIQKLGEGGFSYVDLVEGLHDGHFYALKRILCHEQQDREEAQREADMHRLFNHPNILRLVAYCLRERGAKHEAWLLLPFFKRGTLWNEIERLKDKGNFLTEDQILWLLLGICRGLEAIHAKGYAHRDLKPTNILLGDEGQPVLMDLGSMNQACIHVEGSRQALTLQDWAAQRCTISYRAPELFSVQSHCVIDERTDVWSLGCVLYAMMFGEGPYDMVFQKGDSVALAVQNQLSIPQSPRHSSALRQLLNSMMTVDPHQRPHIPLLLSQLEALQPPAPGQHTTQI
measured_attribute: residual activity (%)
Just the number in %, nothing appended.

Before answering, review these 5 worked examples.
O=c1cc(N2CCOCC2)oc2c(-c3ccccc3)cccc12
97.5
COc1cc2c(cc1OC)-c1[nH]nc(Nc3cccc(F)c3)c1C2
96.8
c1ccc(-c2cnc(Nc3ccc(OCCN4CCCC4)cc3)s2)cc1
92
O=C(O)c1ccc2c3c1cccc3c(=O)n1c3ccccc3nc21
106
COc1cccc(-c2cc(=O)c3ccccc3o2)c1N
95.4

Ask | For the molecule shown here, CCc1nc(-c2ccc(OC)cc2)[nH]c1-c1ccncc1 , give the reported residual activity.
Reply | 108

Ask | Requested field: residual activity. Item: COc1cc2ncnc(Nc3ccc(O)c(Br)c3)c2cc1OC
Reply | 104

Ask | Sample O=C1NC(=O)c2cc(Nc3ccc(F)cc3)c(Nc3ccc(F)cc3)cc21 — what was its residual activity?
Reply | 85.8

Ask | // returns reported residual activity for input N/C(=N\N=C/c1ccc(-c2cccc([N+](=O)[O-])c2)o1)N[N+](=O)[O-]
Reply | 105

Ask | Which residual activity value is on record for O=c1[nH]c2ccccc2n1C1CCN(Cc2ccc(-c3nc4cc5[nH]cnc5cc4nc3-c3ccccc3)cc2)CC1 ?
Reply | 99.5

Ask | So what does the record say about residual activity for COc1cc2c(Nc3ccc(Br)cc3F)ncnc2cc1OCC1CCN(C)CC1 ?
Reply | 101

* * *

target: STK17A (human) (UniProt Q9UEE5); test: radiometric filter-binding kinase assay, Kinase HotSpot; details: compound 0.5 µM; ATP 10 µM
Sequence (Q9UEE5 whole entry, looked up): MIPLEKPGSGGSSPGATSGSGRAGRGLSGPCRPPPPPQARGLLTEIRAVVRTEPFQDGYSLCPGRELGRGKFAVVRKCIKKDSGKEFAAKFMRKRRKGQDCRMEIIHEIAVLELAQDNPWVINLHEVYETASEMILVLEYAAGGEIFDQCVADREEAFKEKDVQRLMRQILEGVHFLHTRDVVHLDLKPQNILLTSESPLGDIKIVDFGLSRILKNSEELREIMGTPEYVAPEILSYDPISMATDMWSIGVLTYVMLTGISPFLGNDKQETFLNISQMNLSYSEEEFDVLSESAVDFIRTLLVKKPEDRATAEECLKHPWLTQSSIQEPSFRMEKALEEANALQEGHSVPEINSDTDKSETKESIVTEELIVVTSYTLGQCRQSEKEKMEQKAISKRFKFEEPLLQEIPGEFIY
measured_attribute: residual activity

Solved cases (3 shown):
O=c1cc(N2CCOCC2)oc2c(-c3ccccc3)cccc12
93.5%
O=c1c2ccccc2[nH]c(=S)n1CCN1CCC(=C(c2ccc(F)cc2)c2ccc(F)cc2)CC1
103%
CCCCc1c(-c2ccc(O)cc2)[nH]c2nccnc12
84.9%

Lab note: next compound to report on.
Ask | Any idea what its residual activity is? The compound is Cc1cc(Nc2nc(-c3ccccc3)nc3ccccc23)n[nH]1
Reply | 81.3%

* * *

residual activity: recorded values
biological target: STK4 (human) (UniProt Q13043); assay: radiometric filter-binding kinase assay, Kinase HotSpot; settings: compound 0.5 µM; ATP 10 µM
Sequence (Q13043 whole entry, looked up): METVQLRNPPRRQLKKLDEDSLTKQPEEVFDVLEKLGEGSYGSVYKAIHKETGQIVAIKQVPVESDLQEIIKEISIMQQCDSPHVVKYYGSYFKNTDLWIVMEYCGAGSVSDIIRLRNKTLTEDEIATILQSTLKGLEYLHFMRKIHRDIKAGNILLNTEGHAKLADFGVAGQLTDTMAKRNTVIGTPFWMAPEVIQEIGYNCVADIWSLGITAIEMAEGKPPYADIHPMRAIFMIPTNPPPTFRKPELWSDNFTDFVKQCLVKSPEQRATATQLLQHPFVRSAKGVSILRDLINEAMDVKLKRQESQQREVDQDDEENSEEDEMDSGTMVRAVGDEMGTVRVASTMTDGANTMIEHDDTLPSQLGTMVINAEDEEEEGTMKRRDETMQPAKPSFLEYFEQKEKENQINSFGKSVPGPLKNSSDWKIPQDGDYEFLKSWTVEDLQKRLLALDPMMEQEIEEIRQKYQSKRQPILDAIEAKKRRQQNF
A number alone suffices; assume %.

Please review the following examples before continuing.
c1ccc(-c2cnc(Nc3ccc(OCCN4CCCC4)cc3)s2)cc1
102
Cc1cc(Nc2nc(-c3ccccc3)nc3ccccc23)n[nH]1
58
O=C1NC(=O)c2cc(Nc3ccc(F)cc3)c(Nc3ccc(F)cc3)cc21
101
O=c1c(-c2ccc(F)cc2)c(-c2ccncc2)[nH]n1-c1ccc(Cl)cc1
90
COc1cc2c(N3CCN(C(=O)Nc4ccc(OC(C)C)cc4)CC3)ncnc2cc1OCCCN1CCCCC1
96.2
CCCCc1c(-c2ccc(O)cc2)[nH]c2nccnc12
78.3

Ask | Report residual activity for N#Cc1c(NC(=O)c2cccc3ccccc23)sc2c1CCCC2 tested on STK4 (human) (UniProt Q13043).
Reply | 93.1

Ask | So what residual activity did Cn1cc(/C=C2\C(=O)Nc3ccc(S(N)(=O)=O)cc32)c2ccccc21 get with STK4 (human) (UniProt Q13043)?
Reply | 10.7

Ask | Lab request: please report residual activity under test system STK4 (human) (UniProt Q13043) for O=C(O)c1ccc2c3c1cccc3c(=O)n1c3ccccc3nc21
Reply | 93.3

Ask | Give the reported residual activity for O=c1[nH]c2ccccc2n1C1CCN(Cc2ccc(-c3nc4cc5[nH]cnc5cc4nc3-c3ccccc3)cc2)CC1 (system: STK4 (human) (UniProt Q13043)).
Reply | 95.2
